- System: SUP-B15;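 note: ALL cell lines in 384-well plates, five doses spanning 10,000-fold, each plate scaled between vehicle and 100 µmol/L benzalkonium chloride controls, sDSS an adapted area-under-curve metric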
- assay info: selective drug sensitivity score (sDSS, relative to normal bone marrow) (sDSS (score)); higher = more potent and effective on the cell line relative to normal bone marrow cells
- stated conditions: 72 h
Here, each record is paired with measured selective drug sensitivity score data.
No unit in the answer, only the number.

Nc1nc(N)c2nc(-c3cccc(O)c3)c(-c3cccc(O)c3)nc2n1 [TG100-115] (top concentration 10000 nM) :: -0.3

Request: So what does the record say about selective drug sensitivity score for C#Cc1cccc(Nc2ncnc3cc4c(cc23)OCCOCCOCCO4)c1 [Icotinib] (top concentration 10000 nM) ?
Result: 1.2

Request: And CCc1cnn2c(NCc3ccc[n+]([O-])c3)cc(N3CCCC[C@H]3CCO)nc12 [Dinaciclib] (top concentration 1000 nM) ?
Result: -3.64

Request: Same again, this time with O=C1CN2Cc3c(ccc(Cl)c3Cl)N=C2N1 [Anagrelide] (top concentration 10000 nM)
Result: 0

Request: Here is the next molecule: CC1(C)OCCn2c1nc1c(N3CCOCC3)nc(-c3cnc(N)nc3)nc12 [GDC-0084] (top concentration 10000 nM)
Result: 5.1

Request: For C=C1C[C@@H]2[C@H](CC[C@]3(C)C(=O)CC[C@@H]23)[C@@]2(C)C=CC(=O)C=C12 [Exemestane] (top concentration 10000 nM) then?
Result: 1.1

Request: Quick one: COc1ccccc1S(=O)(=O)Nc1ccc2c(c1)CN(C)C(=O)N2 [PFI-1] (top concentration 30000 nM)
Result: 8.5
